Attribution: the supplement of paper PMC4166925

System: SpTbr T-box DNA-binding domain (GST fusion);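 further: protein at 200 nM in PBS on universal double-stranded arrays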
Sequence: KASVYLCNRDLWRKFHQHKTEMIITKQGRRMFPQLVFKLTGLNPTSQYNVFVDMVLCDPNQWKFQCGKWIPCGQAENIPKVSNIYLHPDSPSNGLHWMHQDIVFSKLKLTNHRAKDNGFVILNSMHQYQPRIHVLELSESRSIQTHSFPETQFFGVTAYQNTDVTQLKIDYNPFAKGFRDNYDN
Experiment: PBM E-score of 8-mer (E-score (dimensionless, -0.5 to 0.5)); higher = stronger binding preference
Conditions: the construct has about 5 more residues each side
Over roughly 33,000 sequences, “E-score (dimensionless, -0.5 to 0.5)” has its median near -0.046; the highest 2% begin near 0.36. This excerpt belongs to a sample that is enriched for the highest values.
assay.readout: PBM E-score of 8-mer
Could you respond with only the numeric value?

Report PBM E-score of 8-mer for GCAGGTAA
-0.0374

Report PBM E-score of 8-mer for CACTGGCG
0.162

Report PBM E-score of 8-mer for TCCAATAA
-0.0798

Report PBM E-score of 8-mer for ATTTAAAT
-0.0666

Report PBM E-score of 8-mer for GCATAGAA
-0.126

Report PBM E-score of 8-mer for CTAGGTGA
0.356

Report PBM E-score of 8-mer for ACAGAGGG
-0.118

Report PBM E-score of 8-mer for AGGTCGAC
-0.00677

Report PBM E-score of 8-mer for TGCAAGAA
-0.0626

Report PBM E-score of 8-mer for CCCACGTA
-0.0631

====

System: SpTbr T-box DNA-binding domain (GST fusion);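 further: protein at 200 nM in PBS on universal double-stranded arrays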
Sequence: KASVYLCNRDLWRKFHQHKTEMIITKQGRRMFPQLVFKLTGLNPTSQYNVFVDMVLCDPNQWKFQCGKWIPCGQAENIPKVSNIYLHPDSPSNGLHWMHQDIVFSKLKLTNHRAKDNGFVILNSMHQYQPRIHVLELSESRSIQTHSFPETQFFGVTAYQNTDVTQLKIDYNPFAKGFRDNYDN
Assay: PBM E-score of 8-mer (E-score (dimensionless, -0.5 to 0.5)); higher = stronger binding preference
Conditions: target sequence: T-box / the construct has about 5 more residues each side
Whole data set: some 33,000 sequences, median “E-score (dimensionless, -0.5 to 0.5)” near -0.046, cut for the highest 2% near 0.36. The list comes from a sample in which the highest values are over-represented; it also holds close analogues and randomly drawn sequences.
Give PBM E-score of 8-mer for every item shown.
Could you respond with only the numeric value?

Report PBM E-score of 8-mer for ACGTGTCT
0.204

Report PBM E-score of 8-mer for CGCAAGGA
-0.051

Report PBM E-score of 8-mer for AAGACCTC
0.00991

Report PBM E-score of 8-mer for AACACCGC
0.299

Report PBM E-score of 8-mer for ACGTAGGG
-0.127

Report PBM E-score of 8-mer for ACGTGTCA
0.458

Report PBM E-score of 8-mer for TACACCGA
0.118

Report PBM E-score of 8-mer for ACGTTCAC
0.369

Report PBM E-score of 8-mer for AACACCTA
0.461

====

System: SpTbr T-box DNA-binding domain (GST fusion);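 further: protein at 200 nM in PBS on universal double-stranded arrays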
Sequence: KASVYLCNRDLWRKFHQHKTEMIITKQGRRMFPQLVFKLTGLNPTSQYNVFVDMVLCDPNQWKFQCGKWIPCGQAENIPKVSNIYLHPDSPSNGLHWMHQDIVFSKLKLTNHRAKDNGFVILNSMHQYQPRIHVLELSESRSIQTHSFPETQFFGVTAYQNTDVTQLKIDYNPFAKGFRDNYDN
Assay: PBM E-score of 8-mer (E-score (dimensionless, -0.5 to 0.5)); higher = stronger binding preference
Settings: target sequence: T-box / the construct has about 5 more residues each side
Over roughly 33,000 sequences, “E-score (dimensionless, -0.5 to 0.5)” has its median near -0.046; the highest 2% begin near 0.36. The full list was thinned out, with the highest values kept by preference.
assay.readout: PBM E-score of 8-mer
Could you respond with only the numeric value?

Report PBM E-score of 8-mer for GTCGCCCA
0.198

Report PBM E-score of 8-mer for CGAGATCG
0.175

Report PBM E-score of 8-mer for AGGTGGTC
-0.117

Report PBM E-score of 8-mer for AGCCGTCG
0.0127

Report PBM E-score of 8-mer for AGGAGGGG
0.0237

Report PBM E-score of 8-mer for CCTAACTC
-0.0227

Report PBM E-score of 8-mer for CTAATAGC
0.0334

Report PBM E-score of 8-mer for AGGTGATA
0.428

Report PBM E-score of 8-mer for CCTCCACG
0.0268

Report PBM E-score of 8-mer for CGGTGATA
0.111

Report PBM E-score of 8-mer for AGTGGAGC
-0.0127

Report PBM E-score of 8-mer for AGGTGATG
0.394

Report PBM E-score of 8-mer for GCGAACGC
0.375

Report PBM E-score of 8-mer for CCGAACGC
-0.0118

====

Tested on: SpTbr T-box DNA-binding domain (GST fusion);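 further: protein at 200 nM in PBS on universal double-stranded arrays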
Sequence: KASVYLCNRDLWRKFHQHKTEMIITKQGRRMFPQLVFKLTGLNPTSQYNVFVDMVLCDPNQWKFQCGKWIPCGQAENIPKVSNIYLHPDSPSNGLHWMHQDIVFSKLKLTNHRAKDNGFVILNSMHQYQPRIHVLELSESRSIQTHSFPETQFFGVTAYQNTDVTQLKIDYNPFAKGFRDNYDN
Assay: PBM E-score of 8-mer (E-score (dimensionless, -0.5 to 0.5)); Tbr is Tbrain of the sea star Patiria miniata (Pm) or the sea urchin Strongylocentrotus purpuratus (Sp); higher = stronger binding preference
Conditions: target sequence: T-box / the construct has about 5 more residues each side
The full ranking holds about 33,000 sequences; the median of “E-score (dimensionless, -0.5 to 0.5)” is about -0.046, and the highest 2% start at about 0.36. The list comes from a sample in which the highest values are over-represented; it also holds close analogues and randomly drawn sequences.
Cut-off 0.3 on PBM E-score of 8-mer, inclusive. At or above means yes (1); below means no (0).

Is PBM E-score of 8-mer for AGATTTCA at or above 0.3?
no (0)

Is PBM E-score of 8-mer for ACTGCCTA at or above 0.3?
no (0)

Is PBM E-score of 8-mer for GTCACACA at or above 0.3?
yes (1)

Is PBM E-score of 8-mer for CCCACACA at or above 0.3?
no (0)

Is PBM E-score of 8-mer for AAGTGTAA at or above 0.3?
yes (1)

Is PBM E-score of 8-mer for CATGCTAA at or above 0.3?
no (0)

Is PBM E-score of 8-mer for ACACCACC at or above 0.3?
yes (1)

Is PBM E-score of 8-mer for ACTGCGAA at or above 0.3?
yes (1)

Is PBM E-score of 8-mer for ACACCACG at or above 0.3?
yes (1)

Is PBM E-score of 8-mer for ACTCTTTC at or above 0.3?
no (0)

Is PBM E-score of 8-mer for AGCAGAGA at or above 0.3?
no (0)

Is PBM E-score of 8-mer for AACCACTG at or above 0.3?
no (0)

Is PBM E-score of 8-mer for CTTTCAGC at or above 0.3?
no (0)

Is PBM E-score of 8-mer for CCCCCCCC at or above 0.3?
no (0)

Is PBM E-score of 8-mer for GTCGCACA at or above 0.3?
yes (1)

Is PBM E-score of 8-mer for ATCGCAGC at or above 0.3?
no (0)

Is PBM E-score of 8-mer for ACACACAA at or above 0.3?
no (0)

Is PBM E-score of 8-mer for ACCGACAA at or above 0.3?
no (0)

Is PBM E-score of 8-mer for CAGATCAG at or above 0.3?
no (0)

Is PBM E-score of 8-mer for AGACTTTG at or above 0.3?
no (0)

Is PBM E-score of 8-mer for CTTCCAGA at or above 0.3?
no (0)

Is PBM E-score of 8-mer for CAGCTACG at or above 0.3?
no (0)

Is PBM E-score of 8-mer for CTCACACA at or above 0.3?
yes (1)

Is PBM E-score of 8-mer for GTCACAAA at or above 0.3?
no (0)

Is PBM E-score of 8-mer for ACAAGAGG at or above 0.3?
no (0)

Is PBM E-score of 8-mer for TCTCACCA at or above 0.3?
yes (1)

Is PBM E-score of 8-mer for CACCCCTA at or above 0.3?
no (0)

Is PBM E-score of 8-mer for GCCACAGC at or above 0.3?
no (0)

Is PBM E-score of 8-mer for TTATTGAA at or above 0.3?
no (0)

Is PBM E-score of 8-mer for GATGCGAA at or above 0.3?
no (0)

Is PBM E-score of 8-mer for AAGCTTAG at or above 0.3?
no (0)

Is PBM E-score of 8-mer for TGTGCGAA at or above 0.3?
yes (1)

Is PBM E-score of 8-mer for ACACTTTG at or above 0.3?
yes (1)

Is PBM E-score of 8-mer for ACCGACAT at or above 0.3?
no (0)

Is PBM E-score of 8-mer for ACCGACAC at or above 0.3?
yes (1)

Is PBM E-score of 8-mer for ACACCATA at or above 0.3?
no (0)

Is PBM E-score of 8-mer for CCAGTATC at or above 0.3?
no (0)

Is PBM E-score of 8-mer for TCGCAAAA at or above 0.3?
no (0)

Is PBM E-score of 8-mer for ACTTCAAT at or above 0.3?
no (0)

Is PBM E-score of 8-mer for CGAGATAC at or above 0.3?
no (0)

Is PBM E-score of 8-mer for ACCACACC at or above 0.3?
yes (1)

Is PBM E-score of 8-mer for CAGCGTGG at or above 0.3?
no (0)

Is PBM E-score of 8-mer for AACACACC at or above 0.3?
yes (1)

Is PBM E-score of 8-mer for GGTGGCAC at or above 0.3?
yes (1)

Is PBM E-score of 8-mer for GAGTGTCC at or above 0.3?
no (0)

Is PBM E-score of 8-mer for CACACACA at or above 0.3?
yes (1)

Is PBM E-score of 8-mer for TAGTGTCA at or above 0.3?
yes (1)

Is PBM E-score of 8-mer for CAGAGCGC at or above 0.3?
no (0)

Is PBM E-score of 8-mer for AGACTCGG at or above 0.3?
no (0)

Is PBM E-score of 8-mer for AAGTGTCG at or above 0.3?
yes (1)

Is PBM E-score of 8-mer for CTACTGTC at or above 0.3?
no (0)

Is PBM E-score of 8-mer for CCACCACC at or above 0.3?
no (0)

Is PBM E-score of 8-mer for AAGTGGTG at or above 0.3?
no (0)

Is PBM E-score of 8-mer for TCGCACCA at or above 0.3?
yes (1)

Is PBM E-score of 8-mer for CCCACACG at or above 0.3?
no (0)

Is PBM E-score of 8-mer for GCCACACC at or above 0.3?
yes (1)

Is PBM E-score of 8-mer for CCGCACCA at or above 0.3?
no (0)

Is PBM E-score of 8-mer for GAACAAAA at or above 0.3?
no (0)

Is PBM E-score of 8-mer for CACACTCA at or above 0.3?
yes (1)

Is PBM E-score of 8-mer for GCCGACAC at or above 0.3?
yes (1)

Is PBM E-score of 8-mer for ACACCACT at or above 0.3?
no (0)

Is PBM E-score of 8-mer for GATTGTCA at or above 0.3?
no (0)

Is PBM E-score of 8-mer for AACACTCA at or above 0.3?
yes (1)

Is PBM E-score of 8-mer for AGCACTTG at or above 0.3?
no (0)

Is PBM E-score of 8-mer for GACACTCC at or above 0.3?
yes (1)

Is PBM E-score of 8-mer for ACCACACG at or above 0.3?
no (0)

Is PBM E-score of 8-mer for GCTGGGCC at or above 0.3?
no (0)

Is PBM E-score of 8-mer for CCCACTCG at or above 0.3?
no (0)

Is PBM E-score of 8-mer for CACACACG at or above 0.3?
no (0)

Is PBM E-score of 8-mer for CACACTCC at or above 0.3?
yes (1)

Is PBM E-score of 8-mer for CTAGATAA at or above 0.3?
no (0)

Is PBM E-score of 8-mer for ACACTTTA at or above 0.3?
yes (1)
